Biological target: OXA-58 (Acinetobacter baumannii)
Sequence (Q2TR58 19-280): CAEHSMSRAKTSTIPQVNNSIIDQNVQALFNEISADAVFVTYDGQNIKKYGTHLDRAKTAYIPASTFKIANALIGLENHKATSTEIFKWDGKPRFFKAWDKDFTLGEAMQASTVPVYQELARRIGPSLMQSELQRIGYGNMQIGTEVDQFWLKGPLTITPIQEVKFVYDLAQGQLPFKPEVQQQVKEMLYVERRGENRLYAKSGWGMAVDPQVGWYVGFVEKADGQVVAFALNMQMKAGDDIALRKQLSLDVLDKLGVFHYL
Assay: Inhibition assay with nitrocefin as reporter, OXA-58
Settings: read-out: CDD-97 Ki; OXA-58, nitrocefin substrate
property: Ki (µM)
Give bare numbers, in µM.

Input line: Which Ki value belongs to CCOc1ccccc1N1CCN(c2ncnc(N3CCC(C(=O)O)CC3)n2)CC1 [CDD-97] ?
Output line: 45

---

Target: OXA-24 (Acinetobacter baumannii, UniProt Q8RLA6)
Experiment: Inhibition assay with nitrocefin as reporter, OXA-24
Details: read-out: CDD-97 Ki; OXA-24, nitrocefin substrate
property: Ki
Express the reported value numerically, then name its unit.

Input line: Give recorded Ki with OXA-24 (Acinetobacter baumannii, UniProt Q8RLA6) for the following molecule: CCOc1ccccc1N1CCN(c2ncnc(N3CCC(C(=O)O)CC3)n2)CC1
Output line: 14 µM
